Source listed as patent US7041683B2.

# targetOfAssay: human 5-HT1A receptors (Homo sapiens)
# Construct: expressed in transfected cells; host or cells: CHO cells
# experimentalProtocol: [3H] 8-OHDPAT displacement from 5-HT1A receptor in stably transfected CHO cells
# Assay type: binding
Note to self: use rule met only for Ki readings below 20 nM; a reading exactly at 20 nM still gets rule not met.

Could you please tell me whether Ki recorded for COc1ccc2c(c1)OC(CN1CC=C(c3c[nH]c4ccccc34)CC1)CO2 (stereo not shown) [Example 13] is less than 20 nM? rule met

Next molecule: NC(=O)c1cccc2c1OC(CN1CC=C(c3c[nH]c4ccccc34)CC1)CO2 (stereo not shown) [Example 10] rule not met

Next molecule up: COc1cccc2c1O[C@@H](CN1CC=C(c3c[nH]c4ccc(F)cc34)CC1)CO2 [Example 14] rule met

What about Nc1ccc2c(c1)OCC(CN1CC=C(c3c[nH]c4ccc(F)cc34)CC1)O2 (stereo not shown) [Example 6] ? rule not met

====

# targetOfAssay: cloned human 5-HT1A receptors (Homo sapiens, UniProt P08908)
# Construct: expressed in transfected cells
# Sequence (P08908 1-422): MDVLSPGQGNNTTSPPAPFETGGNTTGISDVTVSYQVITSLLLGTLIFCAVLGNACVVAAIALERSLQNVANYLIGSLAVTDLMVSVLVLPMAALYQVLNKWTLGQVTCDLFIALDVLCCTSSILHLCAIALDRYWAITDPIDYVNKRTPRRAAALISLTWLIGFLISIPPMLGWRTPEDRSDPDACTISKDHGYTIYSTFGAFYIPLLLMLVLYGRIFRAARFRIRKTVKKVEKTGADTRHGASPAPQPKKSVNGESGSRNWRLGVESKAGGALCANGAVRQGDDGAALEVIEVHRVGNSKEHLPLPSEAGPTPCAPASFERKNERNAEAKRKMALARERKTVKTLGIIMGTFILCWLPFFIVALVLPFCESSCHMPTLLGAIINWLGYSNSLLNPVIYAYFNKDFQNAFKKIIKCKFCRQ
# experimentalProtocol: 35S-GTPγS binding assay, antagonist activity at 5-HT1A receptors
# Format: biochemical
recordedEndpoint: pIC50
One number for each entry, as −log10 of the molar value.

For the molecule shown here, Nc1ccc2c(c1)O[C@@H](CN1CC=C(c3c[nH]c4ccccc34)CC1)CO2 (single isomer, unassigned) [Example 3] , give the reported pIC50. 6.63

====

# targetOfAssay: human 5-HT1A receptors (Homo sapiens)
# Construct: expressed in transfected cells; host or cells: CHO cells
# experimentalProtocol: [3H] 8-OHDPAT displacement from 5-HT1A receptor in stably transfected CHO cells
# Type: binding
# reportedConditions: displacement of [3H] 8-OHDPAT, CHO cells stably transfected with human 5-HT1A receptors; read-out: 5-HT1A Receptor Affinity KI
# Source text: High affinity for the serotonin 5-HT1A receptor was established by testing the claimed compound's ability to displace [^3H] 8-OHDPAT (dipropylaminotetralin) from the 5-HT1A serotonin receptor following a modification of the procedure of Hall et al., J. Neurochem. 44, 1685 (1985) which utilizes CHO cells stably transfected with human 5-HT1A receptors.
recordedEndpoint: Ki
State the value, then name its unit.

Can you look up the measured Ki of Nc1ccc2c(c1)OCC(CN1CC=C(c3c[nH]c4ccccc34)CC1)O2 (stereo not shown) for me? 132 nM

====

# targetOfAssay: UniProtKB P31652
# Sequence (P31652 whole entry): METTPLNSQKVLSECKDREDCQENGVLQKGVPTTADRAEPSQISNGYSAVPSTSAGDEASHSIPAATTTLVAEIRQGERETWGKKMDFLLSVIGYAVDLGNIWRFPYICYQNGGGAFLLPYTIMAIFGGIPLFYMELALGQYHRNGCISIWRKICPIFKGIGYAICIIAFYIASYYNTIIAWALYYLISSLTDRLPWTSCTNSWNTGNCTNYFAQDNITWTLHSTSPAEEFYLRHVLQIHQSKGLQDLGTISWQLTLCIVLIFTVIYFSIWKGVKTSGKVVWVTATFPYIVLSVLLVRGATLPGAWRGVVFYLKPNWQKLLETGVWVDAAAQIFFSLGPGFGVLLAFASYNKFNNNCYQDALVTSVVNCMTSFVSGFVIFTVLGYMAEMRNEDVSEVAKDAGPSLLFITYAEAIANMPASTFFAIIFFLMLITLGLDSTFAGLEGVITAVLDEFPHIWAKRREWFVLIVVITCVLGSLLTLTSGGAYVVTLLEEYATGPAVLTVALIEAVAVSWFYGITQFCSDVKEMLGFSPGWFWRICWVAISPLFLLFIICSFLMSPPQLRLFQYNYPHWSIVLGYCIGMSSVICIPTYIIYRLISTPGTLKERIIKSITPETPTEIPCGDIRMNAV
pKi: −log10 of the molar value.
Values of pKi greater than or equal to 9 map to yes; values below map to no.

Known results for compounds:
Nc1ccc2c(c1)OCC(CN1CC=C(c3c[nH]c4ccc(F)cc34)CC1)O2 (stereo not shown): yes
COc1cccc2c1OC(CN1CC=C(c3c[nH]c4ccccc34)CC1)CO2 (stereo not shown): yes
NC(=O)c1cccc2c1OC(CN1CC=C(c3c[nH]c4ccc(F)cc34)CC1)CO2 (stereo not shown): no
COc1cccc2c1O[C@@H](CN1CC=C(c3c[nH]c4ncccc34)CC1)CO2: no

Is pKi at least 9? Consider Fc1ccc2[nH]cc(C3=CCN(CC4COc5ccccc5O4)CC3)c2c1 (stereo not shown) no

Proceed to NC(=O)c1cccc2c1OC(CN1CC=C(c3c[nH]c4ccccc34)CC1)CO2 (stereo not shown) no

====

# targetOfAssay: cloned human 5-HT1A receptors (Homo sapiens)
# Construct: expressed in transfected cells
# experimentalProtocol: 35S-GTPγS binding assay, antagonist activity at 5-HT1A receptors
# Format: biochemical
# reportedConditions: 35S-GTPγS binding, reversal of the effects of the standard agonist 8-OHDPAT; read-out: 5-HT1A Function IC50
Rule: measured IC50 below 200 nM gets MET; anything equal to or greater than 200 nM gets NOT MET.

COc1cccc2c1OC(CN1CC=C(c3c[nH]c4ccccc34)CC1)CO2 (centres unmarked): MET
COc1cccc2c1OC(CN1CC=C(c3c[nH]c4ccc(C#N)cc34)CC1)CO2 (centres unmarked): MET
COc1cccc2c1OC(CN1CC=C(c3c[nH]c4cc(F)ccc34)CC1)CO2 (centres unmarked): NOT MET
Nc1ccc2c(c1)OCC(CN1CC=C(c3c[nH]c4ccccc34)CC1)O2 (centres unmarked): NOT MET
Fc1cccc2c1OC(CN1CC=C(c3c[nH]c4ccccc34)CC1)CO2 (centres unmarked): NOT MET
COc1cccc2c1O[C@@H](CN1CC=C(c3c[nH]c4ccc(F)cc34)CC1)CO2: MET
COc1cccc2c1O[C@@H](CN1CC=C(c3c[nH]c4ncccc34)CC1)CO2: MET
NC(=O)c1cccc2c1OC(CN1CC=C(c3c[nH]c4ccccc34)CC1)CO2 (centres unmarked): NOT MET
COc1ccc2c(c1)OC(CN1CC=C(c3c[nH]c4ccccc34)CC1)CO2 (centres unmarked): NOT MET
Nc1ccc2c(c1)OCC(CN1CC=C(c3c[nH]c4ccc(F)cc34)CC1)O2 (centres unmarked): NOT MET

Next up:
API: query returns whether the compound falls strictly under 200 nM in IC50. Query: NC(=O)c1cccc2c1OC(CN1CC=C(c3c[nH]c4ccc(F)cc34)CC1)CO2 (centres unmarked) NOT MET

====

Structures can show the parent of a compound that is named as a salt.
Consider the following compounds; for each one, report its melting point.

Fc1cccc2c1OC(CN1CC=C(c3c[nH]c4ccccc34)CC1)CO2 (stereo not drawn): 174 to 177 °C
Nc1ccc2c(c1)OCC(CN1CC=C(c3c[nH]c4ccccc34)CC1)O2 (stereo not drawn) [Example 4]: 199 to 200 °C
NC(=O)c1cccc2c1OC(CN1CC=C(c3c[nH]c4ccc(F)cc34)CC1)CO2 (stereo not drawn): 195 to 197 °C
COc1cccc2c1O[C@@H](CN1CC=C(c3c[nH]c4ncccc34)CC1)CO2: 207 to 210 °C
NC(=O)c1cccc2c1OC(CN1CC=C(c3c[nH]c4ccccc34)CC1)CO2 (stereo not drawn): 175 to 178 °C

Quick check: melting point of COc1cccc2c1O[C@@H](CN1CC=C(c3c[nH]c4ccc(F)cc34)CC1)CO2 (as salt: oxalate) ? 154 to 156 °C

====

# targetOfAssay: cloned human 5-HT1A receptors (Homo sapiens, UniProt P08908)
# Construct: expressed in transfected cells
# Sequence (P08908 1-422): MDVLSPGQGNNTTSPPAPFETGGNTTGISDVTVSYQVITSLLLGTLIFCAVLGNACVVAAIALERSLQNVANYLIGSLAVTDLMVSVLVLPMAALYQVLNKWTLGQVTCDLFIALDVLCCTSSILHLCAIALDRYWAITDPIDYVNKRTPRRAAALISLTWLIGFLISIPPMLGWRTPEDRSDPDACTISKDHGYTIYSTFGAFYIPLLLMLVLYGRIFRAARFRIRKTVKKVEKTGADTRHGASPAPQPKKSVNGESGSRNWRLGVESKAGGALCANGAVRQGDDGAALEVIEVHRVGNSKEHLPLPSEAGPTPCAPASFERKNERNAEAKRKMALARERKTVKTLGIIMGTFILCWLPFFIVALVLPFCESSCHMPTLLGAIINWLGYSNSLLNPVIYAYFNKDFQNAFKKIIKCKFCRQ
# experimentalProtocol: 35S-GTPγS binding assay, antagonist activity at 5-HT1A receptors
# Format: biochemical
# Parameters: unit not given here
# reportedConditions: 35S-GTPγS binding, reversal of the effects of the standard agonist 8-OHDPAT
recordedEndpoint: 5-HT1A Function Imax (maximum inhibitory effect)

COc1cccc2c1OC(CN1CC=C(c3c[nH]c4ccc(C#N)cc34)CC1)CO2 (stereo not drawn): (100)
COc1cccc2c1O[C@@H](CN1CC=C(c3c[nH]c4ccc(F)cc34)CC1)CO2: (100)
COc1ccc2c(c1)OC(CN1CC=C(c3c[nH]c4ccccc34)CC1)CO2 (stereo not drawn): (100)

====

Counter-ions that a name gives are not always drawn.
recordedEndpoint: melting point

Recorded melting point, per entry:
COc1cccc2c1OC(CN1CC=C(c3c[nH]c4ccc(C#N)cc34)CC1)CO2 (centres unmarked) (as salt: hydrochloride) (hydrate or solvate): 235 to 238 °C
COc1cccc2c1OC(CN1CC=C(c3c[nH]c4cc(F)ccc34)CC1)CO2 (centres unmarked): 184 to 185 °C
COc1cccc2c1OC(CN1CC=C(c3c[nH]c4ccccc34)CC1)CO2 (centres unmarked) (hydrate or solvate): 203 to 205 °C

Dear colleague, could you please provide melting point for the compounds listed below?
1. Fc1ccc2[nH]cc(C3=CCN(CC4COc5ccccc5O4)CC3)c2c1 (centres unmarked) (as salt: oxalate)
2. COc1ccc2[nH]cc(C3=CCN(CC4COc5ccccc5O4)CC3)c2c1 (centres unmarked) (as salt: oxalate)
3. Nc1ccc2c(c1)OCC(CN1CC=C(c3c[nH]c4ccccc34)CC1)O2 (single isomer, unassigned) [Example 3]
4. COc1ccc2c(c1)OC(CN1CC=C(c3c[nH]c4ccccc34)CC1)CO2 (centres unmarked)
5. Nc1ccc2c(c1)OCC(CN1CC=C(c3c[nH]c4ccc(F)cc34)CC1)O2 (centres unmarked)

145 °C (dec.)
120 °C (dec.)
204 to 206 °C
166 to 168 °C
172 to 174 °C
